TEST SYSTEM: TSSK1B (human) (UniProt Q9BXA7)
Sequence (Q9BXA7 whole entry, looked up): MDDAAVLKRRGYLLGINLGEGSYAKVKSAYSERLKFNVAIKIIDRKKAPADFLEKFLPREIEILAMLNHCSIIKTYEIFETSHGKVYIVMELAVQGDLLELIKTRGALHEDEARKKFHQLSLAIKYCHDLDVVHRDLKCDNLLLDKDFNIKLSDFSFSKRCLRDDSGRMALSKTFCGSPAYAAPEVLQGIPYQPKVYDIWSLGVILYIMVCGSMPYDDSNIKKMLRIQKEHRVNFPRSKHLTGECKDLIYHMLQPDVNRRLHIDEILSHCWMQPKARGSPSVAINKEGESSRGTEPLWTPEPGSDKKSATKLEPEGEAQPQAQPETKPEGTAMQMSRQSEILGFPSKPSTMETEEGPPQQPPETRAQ
ASSAY PROTOCOL: Caliper, Mobility shift assay off-chip
CONDITIONS USED: compound 1.0 µM
MEASURED METRIC: inhibition (%)

Past entries and their recorded results:
STRUCTURE AS SMILES	SCALE UNIT	EXPERIMENTAL VALUE
CN(c1ccc2ccc3ncc(-c4cnn(C)c4)cc3c(=O)c2c1)S(=O)(=O)NCc1ccccn1	%	8.1
O=C(CCc1ccc2ccc3ncc(C4CCNCC4)cc3c(=O)c2c1)NCc1ccccn1	%	-1.6

P = Cn1cc(-c2cnc3ccc4ccc(CS(=O)(=O)CCc5ccccn5)cc4c(=O)c3c2)cn1
Q = Cn1cc(-c2cnc3ccc4ccc(CS(N)(=O)=O)cc4c(=O)c3c2)cn1
Request: Parameter check: reported inhibition is higher for which label, P or Q ? Label of pick, please.
Result: Q
(Q: 1%, P: -1.7%)

Reference source: the kinase profiling compilation of Christmann-Franck et al. (2016)
